EXPERIMENTAL DETAILS: label from the status in PepcDB records

PRIMARY SEQUENCE	protein production
MFKLVFKQYKCKSTSPDLTEVVKIDDCVVKGNDQEKSDNNIVQRLSISNVESLQTMPGVKSPKDWRTYTLTNHPGIIVIRNPFSERGRRYWSARCLRDFPRTPNIVNLNERLFDESVRSDWWKQLNLCSDGVEFQRIKSAMRWTTFGYHHNWDTKIYDEEMQSPFPEDLSSLCGLFAQALGYADFKPEAAIVNYYPVGSTLSGHTDHSEPNKSAPLFSFSFGQTAIFLIGGRSLEEKPTAIYLQSGDVMIMSGESRLCYHAVPRIIKTQASATLSLIIEDVDNADIKTRTIDKDLFHDVGNPQFWEPFSRYMDDSRININIRQVLNPGDVKL	failed
MDRECERDPYYDDLKVAKRAIEQMEMVAMMEGIPKFCPCGGSIVDTRKDEKRYYQCEKFKDDRTDLMHIRKLWDKAMEEEVSSLRESVDYNRKKVLSHEYLIEEMQKELKAHRAEIVNVSKVVFRNPMAPKK	failed

###

EXPERIMENTAL DETAILS: label from the status in PepcDB records

PRIMARY SEQUENCE	protein production
MAINPNPRSVVAVRATVPEDAFTAGALGTLREGSGVVIRNDGLVLTIGYLITEAEEVWLTAYDGRVIPAHALAYDQESGFGLVQALAPTGLPAVALGDAGKARIGDAVVLADGIGRAVEAKIVTKQEFAGYWEYLLDEAIFIAPAHPSWGGAPLFGADGALLGIGSLRLQMSRAGEVADINMVVPIDLLPPILDDLLTRGQVAKPPRPWLGALSAESDGKVVVMSVTEGGPAAKAGLRQGDVISEVRDGAVDGLADFYRKLWDSGSAGAEIPMRVVRDGRETWLRVKSADRGSFLKKPQLQ	failed
LETSWIKPGQASWEWWNDAAPYGPDVNFVSGYNLETYKYYIDFASKYGIRYIIMDEGWAKSTRDPYTPNAKVDVHELIRYAEKKNVGIVLWLTWLTVENNMDLFKTFSEWGVKGVKIDFMDRSDQWMMNFYERVAAEAAKYKLFVDFHGSVSPKGLEYKYPNVLSYEGVRGMEQMGGATPDNSIFMPFMRNAVGAMDYTPGAM	failed
EKKEGHFSALPSLPVGSHAKVSSPQPRGPRYAEGTFISDYSIAMDKIHQQDFVNWLLAQKGKKNDWKHNITQREARALELASQANRKEEEAVEPQSSPAKNPSDEDLLRDLLIQELLACLLDQTNLCRLRSR	failed

###

EXPERIMENTAL DETAILS: label from the status in PepcDB records
MEASURED METRIC: protein production

PRIMARY SEQUENCE	MEASURED METRIC	OBSERVED RESULT
MPFGLKSSQSIDDKFMSITQMKNLIHYVKKNDALSHLCIYILIITGSRFKPVQHLRYEDLNFKKSCIHLNDTKNKYSKRNVKVRIKDLEYIQSVINKHPINQNGYIFHNFINFISYSAINDVLVRFCLKYKYDKYTLKSLRHTHCSYLLAKGISIQYISKRLGHADIHTTLKIYSHLIKEFEDSENSLIEKNLNDLFSDLEHHHHHH	protein production	not failed
MCQMPCQFSWPYTHYFTQTKNKEKILNKLIVFTGGPGAGKTSVIEQLKTQGFICAPETGRHVIQMQVANHGSALPWNDKQAFRDEMTKEEVSNYRSFNVRQGDVFFDRSIVDVYGYSKLEQLPISHELITHCQTLRYHSQVFIFPPWASIFSNDEERKQDFSEAVATYQQMVDAYHKFGYQLIEVPKMSVEDRVAFILGSVIELEHHHHHH	protein production	not failed
MLYIDKATILKFDLEMLKKHRRAIQFIAVLLFIVGLLCISFPFVSGDILSTVVGALLICSGIALIVGLFSNRSHNFWPVLSGFLVAVAYLLIGYFFIRAPELGIFAIAAFIAGLFCVAGVIRLMSWYRQRSMKGSWLQLVIGVLDIVIAWIFLGATPMVSVTLVSTLVGIELIFSAASLFSFASLFVKQQ	protein production	failed
MPECRNCGATLREEYRFCPMCATPQTDEASRRLNQYIEQRATKRQASGGTASSNGAENDGTLRGRLQYAAGYVAIVLGLATVTAVAGVFFLLAGLFLLPPIHGRIESAVGRRLGPAPTAGVAGVLAAFGLVVFVFL	protein production	failed
